Tested on: U2OS
Assay: Incucyte cell viability with U2OS; further: unitless GR value; below 1 slowed growth and below 0 cell loss
Type: toxicity, cell-based
Conditions: human, 12 h, 10 µM, compound concentration 10 uM, replicate number 2
parameter measured: Growth Rate
Keep it simple and answer with nothing but the number.

Here is how some molecules turned out for Growth Rate.
molecular string: CNc1ncc2cc(-c3ccc(-c4cccc(C)n4)cc3Cl)c(=O)n(C[C@H]3OC[C@H](N)CO3)c2n1
Growth Rate: 0.83

molecular string: C#Cc1cnc2[nH]cc(-c3cccc4c3CCN4C(=O)[C@@H]3CCCN3C#N)c2c1
Growth Rate: -0.19

molecular string: CCS(=O)(=O)Nc1cccc(Oc2cncc(Nc3ccc(I)cc3F)c2C(N)=O)c1
Growth Rate: 0.76

molecular string: COc1cnccc1Nc1nc(-c2nn(Cc3c(F)cc(OCCO)cc3F)c3ccccc23)ncc1OC
Growth Rate: 0.06

molecular string: CS(=O)(=O)NCC[C@H](NC(=O)c1cncc2c1cnn2-c1ccc(F)cc1)c1ccnc(S(C)(=O)=O)c1
Growth Rate: 0.91

Next molecule, Growth Rate to be filled in.
Could you please provide reported Growth Rate for COc1cc(/C=C(\C#N)C(=O)Nc2nnc(C(F)(F)F)s2)ccc1OCc1ccc(C(F)(F)F)cc1C(F)(F)F ? Thanks! 0.81

---

System: HEK-293T
Assay: Incucyte cell viability with HEK293T; further: unitless GR value; below 1 slowed growth and below 0 cell loss
Format: toxicity, cell-based
Conditions: human, 24 h, 10 µM, compound concentration 10 uM, replicate number 2
Each record is given T if its reported Growth Rate is strictly below 0.4. Records at or above 0.4 are given F.

Look over these answered cases.
molecule: Cc1ccc(NC(=O)c2ccc3c(c2)OCCO3)cc1NC(=O)c1ccc2nc(OCCN3CCCC3)ccc2c1
measurement target: HEK-293T
assigned category: T
//
molecule: O=C(Nc1snnc1C(=O)Nc1ccc(N2CCCC2)cc1)c1cncc(C(F)(F)F)c1
measurement target: HEK-293T
assigned category: F
//
molecule: NC(=O)c1cc(-c2ccnc(NC3CCCCC3)c2)nc(N2CCNCC2)c1
measurement target: HEK-293T
assigned category: F

Is 0.4 strictly greater than the molecule's reported Growth Rate? molecule: CS(=O)(=O)c1ccc(-c2cnc(N)c(C(=O)Nc3ccccc3)n2)cc1 T

Is 0.4 strictly greater than the molecule's reported Growth Rate? molecule: Cc1cc(C2CCCNC2)ccc1Nc1ncc(Br)c(NCc2cccc3c2C(C)(C)C(=O)N3)n1 (stereo not given) T

---

Readings of Growth Rate for the listed compounds
Test system: Fibroblast
Assay: Incucyte cell viability with human fibroblast; further: unitless GR value; below 1 slowed growth and below 0 cell loss
Format: toxicity, cell-based
Conditions: 12 h, 10 µM, compound concentration 10 uM, replicate number 2
Numbered stars: 1 amine (or outer) side, 2 acyl side, 3 side chain; on linkers, the order of the positions; unused ones are H or OH. Bridge positions count the residues as written; N and C are the ends. Square brackets hold non-standard residues; d marks the D form. Peptide text beside a SMILES is read from it. I, II: the chains in the order shown. Hexamethylenediamine = C(CCCN[*:2])CCN[*:1]; Dip = N[C@H](C(=O)O)C(c1ccccc1)c1ccccc1; Chg = N[C@H](C(=O)O)C1CCCCC1; NMeA = CN[C@@H](C)C(=O)O

Here is how some compounds turned out for Growth Rate.
compound: C[C@H](NC(=O)c1cc(Cl)ccc1Oc1ccc(F)cc1)c1ccc(C(=O)O)cc1
result: 0.98

compound: CCCCNc1ncc2c(-c3ccc(CN4CCN(C)CC4)cc3)cn([C@H]3CC[C@H](O)CC3)c2n1
result: 0.3

compound: COc1c(NC(=O)c2cc3cccc(Oc4ccnc(C(=O)N5CCN(C)CC5)c4)c3n2C)cc(C(C)(C)C)cc1NS(C)(=O)=O
result: 0.98

Could you please provide reported Growth Rate for CC(C)(O)c1cnc(N2C[C@@]3(CCC[C@](C)(Cn4cnc5ccc(C#N)cc54)C3)OC2=O)cn1 ? Thanks! -0.2

Could you please provide reported Growth Rate for CN(C)c1ccc(-c2cc3ncccc3c(OCCCCO)n2)cc1.O=C(O)C(F)(F)F ? Thanks! 0.37

Could you please provide reported Growth Rate for CC[C@@H](C(=O)OC)n1c(=O)c2ccccc2n(Cc2cn(C)c3cccc(C)c23)c1=O ? Thanks! 0.49

Could you please provide reported Growth Rate for CC(=O)NCC(=O)N1[C@@H]2CC[C@H]1c1ccc(Nc3ncc(C(F)(F)F)c(NC4CCC4)n3)cc12 ? Thanks! 0.65

Could you please provide reported Growth Rate for CCNC(=O)c1ccc2c(c1)NC(=O)/C2=C(\Nc1ccc(CN(C)C)cc1)c1ccccc1 ? Thanks! 0.8

Could you please provide reported Growth Rate for CN[C@@H](C)C(=O)N[C@H]1CCCC[C@H]2CC[C@@H](C(=O)N[C@@H](c3ccccc3)c3cn(CCCCc4ccc(CCCCn5cc([C@@H](NC(=O)[C@@H]6CC[C@@H]7CCCC[C@H](NC(=O)[C@H](C)NC)C(=O)N76)c6ccccc6)nn5)cc4)nn3)N2C1=O ? Thanks! 0.88

Could you please provide reported Growth Rate for CCOCCn1cc(C(=O)Nc2ccc(-n3nc(-c4cccnc4)cc3C(F)(F)F)cn2)ccc1=O ? Thanks! 0.65

Could you please provide reported Growth Rate for Cc1[nH]c2c(N3CCCCC3)c(-c3ccccc3)nn2c(=O)c1-c1ccc(O)cc1 ? Thanks! 0.39

Could you please provide reported Growth Rate for CN(C)[C@H]1CCN(c2cc(C(F)(F)F)c(C#N)c(Nc3cccc(CCC(=O)O)c3)n2)C1.O=C(O)C(F)(F)F ? Thanks! 0.75

Could you please provide reported Growth Rate for CCCn1cc(-c2cc(C3C(=O)N(CC)c4ccc(C(F)(F)F)cc4N(c4ccccc4)C3=O)cc(OC)c2O)cn1 (stereo unspecified) ? Thanks! 0.46

Could you please provide reported Growth Rate for CCCCC[C@H](O)/C=C/[C@H]1[C@H](O)CC(=O)[C@@H]1CCCCCCC(=O)O ? Thanks! 0.37

Could you please provide reported Growth Rate for CN[C@@H](C)C(=O)N[C@H](C(=O)N1CCC[C@H]1C(=O)N[C@H](C(=O)NCCCCCCNC(=O)[C@@H](NC(=O)[C@@H]1CCCN1C(=O)[C@@H](NC(=O)[C@H](C)NC)C1CCCCC1)C(c1ccccc1)c1ccccc1)C(c1ccccc1)c1ccccc1)C1CCCCC1 (I: H-[NMeA][Chg]P[Dip] / II: H-[NMeA][Chg]P[Dip]; linker I:C-II:C via Hexamethylenediamine) ? Thanks! 0.74

Could you please provide reported Growth Rate for CCOC(=O)CS(=O)(=O)c1ccc([C@@H](CO)NC(=O)c2cc3c(Cl)c(Cl)c(C)cc3n2C)cc1 ? Thanks! -0.95

Could you please provide reported Growth Rate for COc1cc(NC(=O)c2ccc(-c3ccc(Cl)cc3)o2)cc(OC)c1 ? Thanks! 0.03

Could you please provide reported Growth Rate for O=C(CCCN1CCC(O)(c2ccc(Cl)cc2)CC1)c1ccc(F)cc1 ? Thanks! -0.02

Could you please provide reported Growth Rate for CCN(CC)C/C=C/C(=O)Nc1cc2c(Nc3ccc(F)c(Cl)c3)ncnc2cc1OCC1CC1 ? Thanks! -0.26

Could you please provide reported Growth Rate for CC(C)(O)c1ccc2c(c1)ncn2-c1cccc(-c2ccccc2C#N)c1 ? Thanks! 0.33

Could you please provide reported Growth Rate for CN1C(=O)Cc2ccc(-c3ccc(C[C@@H](C#N)NC(=O)[C@@H]4N[C@H]5CC[C@@H]4C5)c(F)c3)cc21 ? Thanks! 0.99
